# system-tested: UniProt P35270
# Sequence (P35270 whole entry): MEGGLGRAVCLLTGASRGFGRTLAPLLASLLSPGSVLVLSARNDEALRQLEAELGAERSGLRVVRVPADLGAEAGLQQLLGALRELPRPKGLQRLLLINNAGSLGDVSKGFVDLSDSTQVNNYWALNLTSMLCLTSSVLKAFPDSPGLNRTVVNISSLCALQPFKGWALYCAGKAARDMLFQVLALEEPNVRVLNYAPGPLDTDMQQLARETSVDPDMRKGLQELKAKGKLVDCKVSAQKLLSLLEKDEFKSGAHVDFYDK
# test-summary: Evaluation Example 2: Measurement of human SPR inhibitory activity (seven concentrations, sepiapterin absorbance at 420 nm)
# Type: biochemical
# condition-description: Evaluation Example 2, seven concentrations 0.14 nM to 100 nM, 240 minutes at room temperature, read-out: IC50
pIC50: −log10 of the molar value. Counter-ions that a name gives are not always drawn.
measured-attribute: pIC50

> print(dat)
                                   molecule   system.tested  reading
1  CC(C)(C)Cn1c(=O)c(C(=O)NC2CC2)c(O)n2nc(N)c(/C=C/C3CC3)c12 [Synthesis Example 440, hydrochloride]  UniProt P35270     8.92
2  Cc1nn2c(O)c(C(=O)NC3CC3)c(=O)n(CC(C)C)c2c1/C=C/C(=O)N1CCCC12CCN(C(=O)OC(C)(C)C)CC2 [Synthesis Example 661]  UniProt P35270     8.61
3  Cc1nn2c(O)c(C(=O)NC3CC3)c(=O)n(CC(C)C)c2c1/C=C/C(=O)N1CCC[C@H]1c1ccccc1 [Synthesis Example 674]  UniProt P35270     8.87
